Tested on: TRPC4 (mouse), co-expressed with 5HT1a in HEK293
experimentalProtocol: enhancement of serotonin-evoked TRPC4 response – cell-based, second counter screen, HEK293 TRPC4/5HT1a, Fluo-4, counter-screen for TRPC4 potentiator project, confirmation (AID 434979)
statedConditions: Fluo-4 calcium flux, at 10 µM, serotonin added at its EC20 dose
The source made the active and inactive calls.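 Rule for the calls: active = signal rise over 3 SD above mean of control wells given weak agonist, in both repeats and first screen; inactive = the rest.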
Reply using exactly one outcome from 1 for active, 0 for inactive

Per the assay record, what outcome was assigned to O=C(CCN1CCN(Cc2ccccc2)CC1)Nc1ccc(OCc2ccccc2)cc1 ? 1

Per the assay record, what outcome was assigned to COc1cc(/C=C2\C(=O)ON=C2c2ccccc2)cc(Cl)c1O ? 0

Per the assay record, what outcome was assigned to CCOC(=O)C1=C(CNCCc2ccc(Cl)cc2)NC(=O)NC1c1cccc([N+](=O)[O-])c1 (configuration not stated) ? 0

Per the assay record, what outcome was assigned to COc1ccc(CCNC(=O)C2CCN(C(=O)c3ccc(C(C)(C)C)cc3)CC2)cc1 ? 0

Per the assay record, what outcome was assigned to COc1ccccc1CCc1nnc(CCC(=O)NCCCOc2cccnc2)o1 ? 0

Per the assay record, what outcome was assigned to CCCCN(C)C(=O)Cn1ncc2c3ccccc3n(CCC)c2c1=O ? 1

Per the assay record, what outcome was assigned to c1ccc2[nH]c(CCCCc3nc4ccccc4[nH]3)nc2c1 ? 0

Per the assay record, what outcome was assigned to Cc1cc(OCC(=O)NNC(=S)NC(=O)c2cccs2)ccc1Cl ? 0

Per the assay record, what outcome was assigned to COC(=O)c1ccc(C(=S)NCC2(N(C)C)CCCCC2)cc1 ? 0

Per the assay record, what outcome was assigned to C=CCn1cnc2scc(-c3ccc(CC)cc3)c2c1=O ? 0

Per the assay record, what outcome was assigned to COc1ccc(CC2(CO)CCN(C/C=C/c3ccccc3OC)CC2)cc1 ? 0

Per the assay record, what outcome was assigned to Cc1ccc(Nc2cc(C)nc3ccc(C)cc23)cc1 ? 0

Per the assay record, what outcome was assigned to CCOC(=O)C1(Cc2ccccc2C)CCCN(Cc2ccc(NC(C)=O)cc2)C1 (configuration not stated) ? 0

Per the assay record, what outcome was assigned to CCOC(=O)C1(Cc2cccc(OC)c2)CCN(Cc2ccc(OC)c(O)c2)CC1 ? 0

Per the assay record, what outcome was assigned to Cc1cccc(C)c1-n1cccc1/C=C1\SC(=S)N(c2cccc(C(=O)O)c2)C1=O ? 0

Per the assay record, what outcome was assigned to Clc1ccc(OCCCc2nc(-c3ccncc3)no2)c(Cl)c1 ? 0

Per the assay record, what outcome was assigned to CC1(C)CN=c2s/c(=C\c3ccc(Cl)cc3)c(=O)n2C1 ? 1

* * *

Tested on: TRPC4 (mouse), co-expressed with 5HT1a in HEK293
experimentalProtocol: enhancement of serotonin-evoked TRPC4 response – cell-based, second counter screen, HEK293 TRPC4/5HT1a, Fluo-4, counter-screen for TRPC4 potentiator project, confirmation (AID 434979)
statedConditions: Fluo-4 calcium flux, at 10 µM, serotonin added at its EC20 dose
Activity calls are given as the source filed them.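 The calls were made as follows: active = signal rise over 3 SD above mean of control wells given weak agonist, in both repeats and first screen; inactive = the rest.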
Reply using exactly one outcome from active, inactive

Per the assay record, what outcome was assigned to COc1ccc(-n2cc(CNCc3cccnc3)c(-c3cccc(F)c3)n2)cc1 ? inactive

Per the assay record, what outcome was assigned to CCN(CC)c1ncnc2sc3c(c12)CCC3 ? inactive

Per the assay record, what outcome was assigned to O=C(Cc1ccccc1)Nc1ccccc1Sc1ccccc1 ? inactive

Per the assay record, what outcome was assigned to Cc1ccc2nc(C(=O)N3CCc4c([nH]c5ccccc45)C3c3ccccn3)cn2c1 (centres undefined) ? inactive

Per the assay record, what outcome was assigned to Oc1c(Br)cc(C2N=C(c3ccccc3Cl)NO2)cc1Br (centres undefined) ? inactive

Per the assay record, what outcome was assigned to Cc1cc(C)c2c(=O)n(CC(=O)NCCCN3CCN(c4ccccc4F)CC3)sc2n1 ? inactive

Per the assay record, what outcome was assigned to CCc1ccc(C(=O)c2cnc3ccc(OC)cc3c2N2CCN(CC)CC2)cc1 ? inactive

Per the assay record, what outcome was assigned to Cc1ccc(Cn2c(=N)c(C(=O)NCC3CCCO3)cc3c(=O)n4ccccc4nc32)cc1 (centres undefined) ? active

Per the assay record, what outcome was assigned to CCCCN1/C(=C/c2ccc3ccccc3[n+]2CC)Sc2ccccc21 ? inactive

// data source = PubChem BioAssay
